In this section, each of the binders is paired with its reported CDC % Relative activity.
target system: human Claudin18.2 (human)
measurement protocol: cell-based or functional assay
Value expressed in %; do not type the unit.

Below: 3 binders and their reported CDC % Relative activity.
binder	CDC % Relative activity, %
chimeric 429H6C5 (antibody, human IgG1, kappa, V domains shown, chimeric, human IgG1/kappa constant regions) VH: DVQLVESGGGLVQPGGSRKLSCAASGFTFSSFGMHWVRQAPEKELEWVAYISSGSSTIYYAHTVKGRFTISRDNPKNTLFLRMTSLGSEDTAMYYCVRFYYGNSFVNWGQGTLVTVSA VL: DIVMTQSPSSLTATAGEKVTMSCKSSQSLLNSGNQKNYLTWYQQKPGQPPKMLIYWASTRESGVPDRFAGSGSGTDFTLTISSVQAEDLAVYYCQNAYIYPLTFGAGTRLELKR	2430
chimeric 410H6H3 (antibody, human IgG1, kappa, V domains shown, chimeric, human IgG1/kappa constant regions; also called 410H6H3-Chimeric) VH: DVLLVESGGGLVQPGGSRKLSCAASGFTFSSSGMHWVRQAPEKGLEWVAYISSGSNTIYYADTLKGRFTISRDNPKNTLFLQMTSLRSEDTAMYYCARIYYGNSFVYWGQGTLVTVSA VL: DIVMTQSPSSLTVTAGEKVIMSCKSSQSLLNSGNQKNYLTWYQQKPGQPPKMLIYWASTRESGVPDRFRGSGSGTDFTLTISSVQAEDLAVYYCQNNYYYPLTFGTGTKLALKR	2810
chimeric 252E7C9 (antibody, human IgG1, kappa, V domains shown, chimeric, human IgG1/kappa constant regions) VH: QTYLQQSGAELVRSGASVKMSCRTSGYSFTSHNMHWVKQTPGQGLEWIGYIYPGNGGSYYNQKFKGKAILTADTSSSTAYMQISSLTSEDSAVYFCTRDYYGNSFVYWGQGTLVTVSA VL: DVVMTQSPSSLTEKTGEKVSMSCKSSQSLLNSGNQKNYLTWYQQKPGQPPKLLIYWASTRESGVPDRFTGSGSGTDFTLTISSLQTEDLAIYYCQNNFRYPFTFGAGTKLELKR	991

CDC % Relative activity lookup needed for chimeric 257G7B9 (antibody, human IgG1, kappa, V domains shown, chimeric, human IgG1/kappa constant regions) VH: QAYLQQSGAELVRSGASVKMSCKASGYTFTSHNLHWVKQTPGQGLEWIGYIYPGNGNTNYNQKFKGKATLTADTSSSTAYMQISSLTSEDSAVYFCTRDYYGNSFAYWGQGTLVTVSA VL: DIVMTQSPSSLTEKAGERVSMSCKSSQSLFNSGNQKNYLTWYQQKPGQPPKLLIYWASTRESGVPDRFTGSGSGTDFTLTISSVQAEDLAVYYCQNNYWFPFTFGAGTKLELKR , thanks.
760

Given the entry chimeric 252F1B10 (antibody, human IgG1, kappa, V domains shown, chimeric, human IgG1/kappa constant regions) VH: QAYLQQSGAELVRSGASVKMSCKASGYTFTSHNMHWVKQTPGQGLEWIGYIYPGNGGTNYNQKFKGKATLTADTSSSTAYMQINSLTSEDSAVYFCTRDYYGNSFAYWGQGTLVTVSA VL: DIVMTQSPSSLTEKAGERVSMSCKSSQSLFNSGNQKNYLTWYQQKPGQPPKLLIYWASTRESGVPDRFTGSGSGTDFTLTISSVQAEDLAVYYCQNDYRYPFTFGAGTKLELKR , report its measured CDC % Relative activity.
937
